# System: K562
# assay.text: Cancer cell growth inhibition, K562
# Type: cell-based, human
# condition.details: Homo sapiens; K562, CML, 72 h treatment
recorded.endpoint: pIC50
Field pIC50 (float): negative decimal logarithm of the concentration in molar.

chemical.string	pIC50
O=C(NO)c1ccc(CNC(=O)c2[nH]c(-c3ccc(O)cc3)cc2-c2ccoc2)cc1	6.13
O=C(NO)c1ccc(CNC(=O)c2[nH]c(-c3ccc(O)cc3)cc2-c2ccsc2)cc1	5.89
COc1ccc(-c2cc(-c3ccsc3)c(C(=O)NCc3ccc(C(=O)NO)cc3)[nH]2)cc1	5.86

Read the next record carefully.
Ask: Query pIC50 for O=C(NO)c1ccc(CNC(=O)c2[nH]c(-c3ccoc3)cc2-c2ccc(O)cc2)cc1
Reply: 5.98

---

# Test system: NCI-N87
# assay.text: Cancer cell growth inhibition, NCI-N87
# Assay type: cell-based, human
# condition.details: Homo sapiens; NCI-N87, Gastric Cancer, 72 h treatment
recorded.endpoint: IC50
Returns: string containing the numeric result and its unit.

compound	measured.target	IC50
COc1ccc(-c2cc(-c3ccsc3)c(C(=O)NCc3ccc(C(=O)NO)cc3)[nH]2)cc1 [Example 28]	NCI-N87	1480 nM

Now examine the next entry.
Ask: // Input: COc1ccc(-c2cc(-c3ccoc3)c(C(=O)NCc3ccc(C(=O)NO)cc3)[nH]2)cc1 [Example 27] . Output its IC50 only.
Reply: 153 nM

---

# Test system: CNE2
# assay.text: Cancer cell growth inhibition, CNE2
# Format: cell-based, human
# condition.details: Homo sapiens, CNE-2; CNE2, Nasopharyngeal Cancer, 72 h treatment
recorded.endpoint: pIC50
Notebook: values listed as pIC50 are -log10 of the concentration (mol/L).

compound	recorded.endpoint	meas.value
O=C(NO)c1ccc(CNC(=O)c2[nH]c(-c3ccoc3)cc2-c2ccc(O)cc2)cc1 [Example 9]	pIC50	5.02
O=C(NO)c1ccc(CNC(=O)c2[nH]c(-c3ccc(O)cc3)cc2-c2ccsc2)cc1 [Example 14]	pIC50	4.94
COc1ccc(-c2cc(-c3ccsc3)c(C(=O)NCc3ccc(C(=O)NO)cc3)[nH]2)cc1 [Example 28]	pIC50	5.30
O=C(NO)c1ccc(CNC(=O)c2[nH]c(-c3ccc(O)cc3)cc2-c2ccoc2)cc1 [Example 15]	pIC50	4.79

Now consider the entry below.
Ask: Answer with the recorded pIC50 for the compound listed here: COc1ccc(-c2cc(-c3ccoc3)c(C(=O)NCc3ccc(C(=O)NO)cc3)[nH]2)cc1 [Example 27]
Reply: 6.23

---

Recorded measurements of log10(IC50), one per entry
# Test system: MDA-MB-231
# assay.text: Cancer cell growth inhibition, MDA-MB-231
# Format: cell-based, human
# condition.details: Homo sapiens; MDA-MB-231, Breast Cancer, 72 h treatment
Hi team, quick reminder: these entries are log10 of IC50 (µM).

Here are 4 molecules together with their reported answers.
chemical.string	log10(IC50)
O=C(NO)c1ccc(CNC(=O)c2[nH]c(-c3ccoc3)cc2-c2ccc(O)cc2)cc1	0.63
O=C(NO)c1ccc(CNC(=O)c2[nH]c(-c3ccc(O)cc3)cc2-c2ccsc2)cc1	0.61
COc1ccc(-c2cc(-c3ccsc3)c(C(=O)NCc3ccc(C(=O)NO)cc3)[nH]2)cc1	1.87
O=C(NO)c1ccc(CNC(=O)c2[nH]c(-c3ccc(O)cc3)cc2-c2ccoc2)cc1	0.26

Moving on to another molecule below.
Ask: // fetch log10(IC50) given entry COc1ccc(-c2cc(-c3ccoc3)c(C(=O)NCc3ccc(C(=O)NO)cc3)[nH]2)cc1
Reply: 0.17
